Reference source for all entries: patent US20040224958A1

STUDY_TARGET: cdk2/cyclinA (Homo sapiens)
ASSAY_SUMMARY: Cyclin-Dependent Kinase Assay cdk2/cyclinA
EXPERIMENTAL_CONDITIONS: cdk2/A IC50
pIC50: −log10 of the molar value.
QUANTITY_NAME: pIC50

Sample records with pIC50:
SUBSTANCE_SMILES	ENDPOINT_VALUE
CCC(CC)n1c(=O)ccc2cnc(Nc3ccc(OC)c(OC)c3)nc21	6.94
Cc1ccc(Nc2ncc3ccc(=O)n(C(C)C)c3n2)cc1NS(C)(=O)=O	6.20

A = CCC(CC)n1c(=O)ccc2cnc(Nc3ccc4c(c3)CCC4)nc21
B = O=c1ccc2cnc(Nc3ccc(O)c(Cl)c3)nc2n1C1CCCC1
Between the entries labelled A and B , which has a larger pIC50 value on record? Answer format: the label of the selected item. B
(B: 7.47, A: 6.54)

* * *

STUDY_TARGET: cdk4/D (Homo sapiens)
ASSAY_SUMMARY: Cyclin-Dependent Kinase 4 (cdk4) Assay
Assay type: biochemical
EXPERIMENTAL_CONDITIONS: read-out: cdk4/D IC50
pIC50: −log10 of the molar value.
QUANTITY_NAME: pIC50

Examples with their reported pIC50 follow.
MOLECULE	QUANTITY_NAME	ENDPOINT_VALUE
CC(C)n1c(=O)ccc2cnc(Nc3cc([N+](=O)[O-])ccc3F)nc21	pIC50	6.00
CCCn1c(=O)ccc2cnc(Nc3ccc(OC)c(OC)c3)nc21	pIC50	5.70
O=c1ccc2cnc(Nc3ccc(O)c(Cl)c3)nc2n1CC(F)(F)F	pIC50	5.70
O=c1ccc2cnc(Nc3cc(Cl)c(O)c(Cl)c3)nc2n1CC1CC1	pIC50	6.04
Cc1cc(Nc2ncc3ccc(=O)n(C4CCCC4)c3n2)ccc1Br	pIC50	6.80
CCC(CC)n1c(=O)ccc2cnc(Nc3ccc(Br)c(C(F)(F)F)c3)nc21	pIC50	5.65
CCCn1c(=O)ccc2cnc(Nc3ccc(F)c(C)c3)nc21	pIC50	6.37
CCCCn1c(=O)ccc2cnc(Nc3ccc(NC(=O)OC(C)(C)C)cc3)nc21	pIC50	6.40

1 = CCC(CC)n1c(=O)ccc2cnc(Nc3ccc(OC(F)(F)F)cc3)nc21
2 = CCCn1c(=O)ccc2cnc(Nc3ccc(F)cc3F)nc21
3 = CCC(CC)n1c(=O)ccc2cnc(Nc3ccc(NC(C)=O)c(C)c3)nc21
Sequence the entries by pIC50, beginning with the highest number. Form entry: labels listed in requested order. 1, 3, 2
(1: 6.70, 3: 6.08, 2: 5.44)

A = CCC(C)n1c(=O)ccc2cnc(Nc3ccc(F)c(Cl)c3)nc21 (stereo not shown)
B = CCC(CC)n1c(=O)ccc2cnc(Nc3cccc(C(F)(F)F)c3)nc21
C = COc1ccc(Nc2ncc3ccc(=O)n(C4CCCCC4)c3n2)cc1OC
Order the records by pIC50, with each subsequent value no larger than the one before. Record the ranking as a list of labels in the requested order. A, C, B
(A: 6.80, C: 6.38, B: 6.16)

1 = CC(C)n1c(=O)ccc2cnc(Nc3ccc4c(c3)CCN4)nc21
2 = CCn1c(=O)ccc2cnc(Nc3ccc4[nH]ncc4c3)nc21
3 = O=c1ccc2cnc(Nc3ccc4cn[nH]c4c3)nc2n1C1CCCC1
4 = NS(=O)(=O)c1cccc(Nc2ncc3ccc(=O)n(C4CCCC4)c3n2)c1
5 = CCCCn1c(=O)ccc2cnc(Nc3ccc(F)c(C)c3)nc21
Arrange items by their pIC50 values in increasing order. I would appreciate it if you listed the labels in the requested order. 1, 5, 2, 4, 3
(1: 5.49, 5: 6.12, 2: 6.32, 4: 7.27, 3: 7.51)

P = CCCn1c(=O)ccc2cnc(Nc3ccc(OC)cc3)nc21
Q = COc1cc(Nc2ncc3ccc(=O)n(CC(F)(F)F)c3n2)cc(C(F)(F)F)c1
// returns P or Q , whichever has the lower pIC50 Lab log: write the label of the selected item as the result. Q
(Q: 5.42, P: 6.50)

* * *

STUDY_TARGET: cdk2/cyclinE (Homo sapiens)
ASSAY_SUMMARY: Cyclin-Dependent Kinase Assay cdk2/cyclinE
EXPERIMENTAL_CONDITIONS: Cdk2/E IC50, Table 3
pIC50: −log10 of the molar value.
QUANTITY_NAME: pIC50

Completed entries (count: 3):
MOLECULE	pIC50
CCn1c(=O)ccc2cnc(Nc3ccc(F)cc3)nc21 [Example 88]	6.25
COc1ccc(Nc2ncc3ccc(=O)n(C(C)C)c3n2)cc1 [Example 111]	6.24
CCC(CC)n1c(=O)ccc2cnc(Nc3ccccc3)nc21 [R′=H, R″=H, R2=1-ethylpropyl]	6.70

I = CC(C)n1c(=O)ccc2cnc(Nc3cccc([N+](=O)[O-])c3)nc21 [Example 623]
II = Cn1c(=O)ccc2cnc(Nc3ccccc3)nc21 [Example 61]
Kindly identify which of I and II has the larger recorded pIC50 value. Pick one and reply with its label. I

* * *

STUDY_TARGET: cdk4/D (Homo sapiens, UniProt P11802)
Sequence (P11802 whole entry): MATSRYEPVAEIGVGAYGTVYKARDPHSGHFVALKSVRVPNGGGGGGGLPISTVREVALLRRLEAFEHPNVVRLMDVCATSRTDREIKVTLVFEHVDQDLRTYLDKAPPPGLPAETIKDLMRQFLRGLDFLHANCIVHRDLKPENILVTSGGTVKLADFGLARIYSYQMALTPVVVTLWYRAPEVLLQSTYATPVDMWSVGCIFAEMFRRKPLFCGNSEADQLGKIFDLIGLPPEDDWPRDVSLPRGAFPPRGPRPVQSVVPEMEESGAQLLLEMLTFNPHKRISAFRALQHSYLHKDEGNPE
Sequence (P24385 whole entry, further chain): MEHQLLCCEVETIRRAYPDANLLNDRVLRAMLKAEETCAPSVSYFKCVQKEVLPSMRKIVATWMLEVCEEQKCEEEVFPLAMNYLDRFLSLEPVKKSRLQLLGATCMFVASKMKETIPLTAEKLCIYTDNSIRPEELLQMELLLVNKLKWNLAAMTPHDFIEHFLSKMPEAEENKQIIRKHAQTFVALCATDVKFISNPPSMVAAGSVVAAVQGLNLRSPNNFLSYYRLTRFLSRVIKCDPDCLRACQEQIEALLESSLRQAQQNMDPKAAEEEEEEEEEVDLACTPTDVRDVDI
ASSAY_SUMMARY: Cyclin-Dependent Kinase 4 (cdk4) Assay
Assay type: biochemical
EXPERIMENTAL_CONDITIONS: read-out: cdk4/D IC50
QUANTITY_NAME: IC50 (nM)

Example compounds with recorded IC50:
COMPOUND	MEASUREMENT_UNIT	ENDPOINT_VALUE
O=C(O)c1cc(Nc2ncc3ccc(=O)n(C4CCCC4)c3n2)ccc1O [Example 560]	nM	910
CC(C)n1c(=O)ccc2cnc(Nc3ccc(Cl)c(C(F)(F)F)c3)nc21 [Example 421]	nM	1900
CCn1c(=O)ccc2cnc(Nc3ccc(F)c(C(F)(F)F)c3)nc21 [Example 293]	nM	2000

P = O=c1ccc2cnc(Nc3cc(F)cc(F)c3)nc2n1C1CCCC1 [Example 548]
Q = O=c1ccc2cnc(Nc3ccc(F)c(F)c3)nc2n1CC(F)(F)F [Example 607]
Which record would sort first by descending IC50, P or Q ? Choose, then provide that item's label. Q
(Q: 1400 nM, P: 180 nM)

* * *

We begin with a simple list: items and their reported melting point.

Illustrative cases are given below, each with its answer.
COMPOUND	QUANTITY_NAME	ENDPOINT_VALUE
O=c1ccc2cnc(Nc3ccc(-c4ccccc4)cc3)nc2n1C1CC2CCC1C2 (stereo not drawn)	melting point	255 to 257 °C
CCn1c(=O)ccc2cnc(Nc3ccc(OCCOC)cc3)nc21	melting point	169 to 171 °C
CCn1c(=O)c(C)cc2cnc(Nc3ccc(N4CCN(C)CC4)cc3)nc21	melting point	198 to 200 °C
O=c1ccc2cnc(Nc3cccc(N4CCCCC4)c3)nc2n1C1CCCCC1	melting point	164 to 165 °C
O=c1ccc2cnc(Nc3ccc(N4CCC(CCCO)CC4)cc3)nc2n1C1CC2CCC1C2 (stereo not drawn)	melting point	223 °C

Requested read-out: melting point. Entry: O=c1ccc2cnc(Nc3ccc(N4CCCCC4)cc3)nc2n1CCCOC1CCCCO1 (stereo not drawn) 85 to 86 °C

Consider next the compound "O=c1ccc2cnc(Nc3ccccc3)nc2n1C1CCCCC1" in the same way. 202 to 204 °C

Another: O=c1ccc2cnc(Nc3ccc(N4CCCCC4)cc3)nc2n1[C@@H]1C[C@H]2CC[C@@H]1C2 (relative stereo) 243 to 244 °C

"CC(C)n1c(=O)ccc2cnc(Nc3cccc([N+](=O)[O-])c3)nc21" ? 202 to 203 °C

# iterate: CC1CCCN(c2ccc(Nc3ncc4ccc(=O)n(C5CCCCC5)c4n3)cc2)C1 (stereo not drawn) 189 to 190 °C

One more compound: O=c1ccc2cnc(Nc3ccc(F)cc3)nc2n1C1CC2CCC1C2 (stereo not drawn) 219 to 220 °C

And what about the compound "CCn1c(=O)ccc2cnc(Nc3cccc(F)c3)nc21" ? 210 to 212 °C

Input "CN1CCN(c2ccc(Nc3ncc4ccc(=O)n(C5CCCCC5)c4n3)cc2)CC1" 205 to 207 °C

Try "CCNc1ncc2ccc(=O)n(C)c2n1" next. 194 to 195 °C

Repeat for the following compound: "O=c1ccc2cnc(Nc3ccccc3)nc2n1Cc1ccccc1" 215 to 216 °C

Then this compound: O=c1ccc2cnc(Nc3ccc(N4CCCC(CO)C4)cc3)nc2n1C1CC2CCC1C2 (stereo not drawn) 152 °C

Would you kindly repeat that for "CN(C)c1ccc(Nc2ncc3ccc(=O)n(CCCOCc4ccccc4)c3n2)cc1" ? 144 to 146 °C

Another compound to check: "Cc1cc(C)n(-c2ccc(Nc3ncc4ccc(=O)n(C5CCCC5)c4n3)cc2)n1" 169 to 171 °C

* * *

STUDY_TARGET: cdk4/D (Homo sapiens, UniProt P11802)
ASSAY_SUMMARY: Cyclin-Dependent Kinase 4 (cdk4) Assay
Type: biochemical
EXPERIMENTAL_CONDITIONS: read-out: cdk4/D IC50
QUANTITY_NAME: IC50 (nM)

MOLECULE	STUDY_TARGET	MEASUREMENT_UNIT	IC50
CCn1c(=O)ccc2cnc(Nc3cc([N+](=O)[O-])ccc3F)nc21 [Example 297]	cdk4/D (Homo sapiens, UniProt P11802)	nM	3300
CCn1c(=O)ccc2cnc(Nc3ccc(C#N)cc3)nc21 [Example 304]	cdk4/D (Homo sapiens, UniProt P11802)	nM	2900
CCCCn1c(=O)ccc2cnc(Nc3ccc(C(N)=O)cc3)nc21 [Example 371]	cdk4/D (Homo sapiens, UniProt P11802)	nM	331
CCCn1c(=O)ccc2cnc(Nc3cc(OC)cc(C(F)(F)F)c3)nc21 [Example 342]	cdk4/D (Homo sapiens, UniProt P11802)	nM	2200

1 = CCCCn1c(=O)ccc2cnc(Nc3cccc(C(F)(F)F)c3)nc21 [Example 373]
2 = N#Cc1ccc(Nc2ncc3ccc(=O)n(C4CCCC4)c3n2)cc1 [Example 531]
Please indicate which item has the smaller measured IC50: 1 versus 2 Let me know the label of the one you choose. 2
